- run description: in vitro
- reported conditions: human, CAR-T cells
readout kind: viability at 12 day, 100 nM (%)
Write the answer as a number in %, unit excluded.

compound | viability at 12 day, 100 nM (%)
CC[C@@H]1CN(C(=O)NCC(F)(F)F)C[C@@H]1c1cnc2cnc3[nH]ccc3n12 [upadacitinib] | 67.5

Now, please, on to the next compound.
// Input: C[C@@H]1C[C@H]2[C@@H]3CCC4=CC(=O)C=C[C@]4(C)[C@@]3(F)[C@@H](O)C[C@]2(C)[C@@]1(O)C(=O)CO [dexamethasone] . Output its viability at 12 day, 100 nM only.
56.5

====

- run description: Clinical pharmacokinetic data converted to in vitro concentrations
- reported conditions: human, in vivo, 100 mg
- Excerpt: Given the different potencies of the JAK inhibitors and different pharmacokinetic properties for each drug, it was sought to test each drug at a relevant range of physiological concentrations based on clinical dosing and reported pharmacokinetic data from repeat dose studies. Reported Cmax values in patient sera were converted to in vitro concentrations and adjusted for reported plasma protein binding.
readout kind: Cmax (ng/mL)
Give a bare numeral; the unit ng/mL is implied.

State, in one line, measured Cmax of "C[C@H]1C[C@@H]2[C@H]([C@@H](O)C[C@@]3(C)[C@H]2CC[C@]3(O)C(=O)CO)[C@@]2(C)C=CC(=O)C=C12"
960

====

viability at 8 day, 50 nM values by entry
- run description: in vitro
- reported conditions: human, CAR-T cells
Number in %, nothing else.

structure smiles | viability at 8 day, 50 nM [%]
CC[C@@H]1CN(C(=O)NCC(F)(F)F)C[C@@H]1c1cnc2cnc3[nH]ccc3n12 | 65.3

Pending molecule:
Note down viability at 8 day, 50 nM recorded for "C[C@@H]1C[C@H]2[C@@H]3CCC4=CC(=O)C=C[C@]4(C)[C@@]3(F)[C@@H](O)C[C@]2(C)[C@@]1(O)C(=O)CO"
53.8

====

Recorded pIC50 for the following compounds
- Test system: CD19 CAR T cells
- run description: CAR T cell cytokine production (Luminex) under CD19 K562, KIP-1 or CD2/3/28 stimulation
- reported conditions: Homo sapiens, T-cell, 72 h, read-out: Suppression of cytokine production, Perforin (IC50), KIP-1 stimulation, 72 h
Scale note: pIC50 = -log10(concentration in M).

structure smiles | pIC50
N#CCC1(n2cc(-c3ncnc4[nH]ccc34)cn2)CN(C2CCN(C(=O)c3ccnc(C(F)(F)F)c3F)CC2)C1 | 6.37

Next compound, please.
Give the value of pIC50 reported for the following: "O=C(Nc1nc2cccc(-c3ccc(CN4CCS(=O)(=O)CC4)cc3)n2n1)C1CC1"
5.68

====

- run description: in vitro
- reported conditions: human, CAR-T cells
readout kind: viability at 8 day, 5000 nM (%)
Write the answer as a number in %, unit excluded.

Indicate its recorded viability at 8 day, 5000 nM; the compound in question is "C[C@H]1C[C@@H]2[C@H]([C@@H](O)C[C@@]3(C)[C@H]2CC[C@]3(O)C(=O)CO)[C@@]2(C)C=CC(=O)C=C12"
66

====

- Test system: CD19 CAR T cells
- run description: CAR T cell cytokine production (Luminex) under CD19 K562, KIP-1 or CD2/3/28 stimulation
- reported conditions: read-out: Suppression of cytokine production, IL-8 (IC50); KIP-1 stimulation, 72 h
pIC50: −log10 of the molar value.
readout kind: pIC50

structure smiles | system under test | readout kind | experimental value
Nc1nc2cccc(-c3ccc(CN4CCS(=O)(=O)CC4)cc3)n2n1 | CD19 CAR T cells | pIC50 | < 5.00

Give the reported pIC50 for this compound. "C[C@H]1C[C@@H]2[C@H]([C@@H](O)C[C@@]3(C)[C@H]2CC[C@]3(O)C(=O)CO)[C@@]2(C)C=CC(=O)C=C12"
< 5.00
